assay: gradient 5% acetonitrile 3 min, to 50% in 2 min, to 85% in 15 min, held 3 min, 100 µL/min
experimental-context: column: Zorbax Extend-C18 2.1 x 50 mm; eluents: water / acetonitrile, 0.1% formic acid
recorded-endpoint: RP-LC retention time (s)
Record the value in s, omitting the unit from your answer.

Given `CCn1cc2c3c(cccc31)CN(C(=O)c1ccc(Br)o1)CC2` , state its recorded RP-LC retention time. 1050

Same for `Cc1nc(NC(=O)c2ccc(Cl)cc2)nc2cc3c(cc12)OCO3` 750

Same for `Cc1cc(C)n(-c2ccnc(NCCC3=CCCCC3)n2)n1` 975

Same for `Cc1ccc(NC(=O)Nc2c(-c3ccc(F)cc3)nc3ccccn23)cc1` 692

Same for `C=CCn1c(C)c(CC(=O)NCC(C)C)c(=O)n2nc(-c3ccccc3)nc12` 779

Same for `COc1cccc(NC(=O)N2CCc3c(c(-c4nnc(-c5ccc(F)cc5)o4)nn3C)C2)c1` 833

Same for `COC(=O)c1cccc(Nc2c(-c3ccc([N+](=O)[O-])cc3)nc3cnccn23)c1` 839

Same for `CCc1ccccc1NC(=O)C1CCN(S(=O)(=O)c2c(C)[nH]c(C)c2C(=O)N2CCCC2)CC1` 726

Same for `Cc1cc(C)n(-c2cc(SCC(=O)NCc3ccco3)ncn2)n1` 779

Same for `Cc1cc2nc(C(=O)Nc3ccc(C)c(C)c3)cc(C)n2n1` 1090

====

assay: gradient 5% acetonitrile 3 min, to 50% in 2 min, to 85% in 15 min, held 3 min, 100 µL/min
experimental-context: column: Zorbax Extend-C18 2.1 x 50 mm; eluents: water / acetonitrile, 0.1% formic acid
Kindly supply the reported RP-LC retention time values for the records listed here.
Record the value in s, omitting the unit from your answer.

Given `CC1=C(c2ccccc2)S(=O)(=O)N=C1N1CCCN(C(=O)COc2ccccc2)CC1` , state its recorded RP-LC retention time. 836

Same for `COc1ccc(OC)c(CNC(=O)c2c(O)c3cccnc3[nH]c2=O)c1` 921

Same for `COc1ccc(Cl)cc1NC(=O)C1(c2ccccc2)CCOCC1` 1010

Same for `CCn1nccc1C(=O)N1CCC2(CC1)C(=O)N(C)c1ccccc12` 630

Same for `O=C(NC1CCCCCC1)c1nnn(Cc2ccccc2)c1-n1cccc1` 1120

Same for Cc1cc(C)c2oc(C(=O)NCC(c3ccccc3)N(C)C)cc(=O)c2c1 (centres undefined) 636

Same for `COc1ccc2ncc(C(=O)c3ccc(C)cc3)c(N3CCN(C)CC3)c2c1` 582

Same for `O=C([C@@H]1C[C@H](F)CN1S(=O)(=O)c1cccc(F)c1)N1CCCCC1` 805

Same for `CCn1nnc2c(SCC(=O)Nc3cccc(C(F)(F)F)c3)ncnc21` 866

Same for `CC(=O)Nc1ccc(CCc2nc3ccc(C(=O)NCCc4c[nH]c5ccccc45)cc3[nH]2)cc1` 644

Same for `Cc1ccc(-c2cc3c(=O)n(Cc4noc(CN5CCN(C)CC5)n4)ccn3n2)cc1` 659

Same for COc1ccc(NC(=O)N2CCC(c3noc(-c4cccnc4)n3)C2)cc1 (centres undefined) 690

Same for `Cc1ccc(-c2noc(Cc3nnc(-c4ccccc4)o3)n2)cc1C` 1100

Same for `COc1ccc(NC(=O)Cn2cccc2-c2nc(-c3ccc4c(c3)OCO4)no2)c(OC)c1` 1040

Same for `O=C(Nc1nccs1)C1CCN(C(=O)c2cccc(-n3cnnn3)c2)CC1` 625

Same for `O=C(Nc1ccc2ncsc2c1)c1cc(Cl)sc1Cl` 852

Same for `COc1ccc(CNC(=O)CN2CCN(Cc3ccc(C)cc3)C(=O)C2=O)cc1` 734

Same for `COc1cc(C(=O)N2CCC(C(=O)NCCc3cscn3)CC2)cc(OC)c1OC` 631

Same for Cc1ccc(N2CC(c3nc(-c4cccc(-c5ccnn5C)c4)no3)CC2=O)cc1 (centres undefined) 605

====

Kindly supply the reported RP-LC retention time values for the records listed here.
assay: gradient 5% acetonitrile 3 min, to 50% in 2 min, to 85% in 15 min, held 3 min, 100 µL/min
experimental-context: column: Zorbax Extend-C18 2.1 x 50 mm; eluents: water / acetonitrile, 0.1% formic acid
Record the value in s, omitting the unit from your answer.

Given `CC(C)CN1C(=O)CCc2cc(NS(=O)(=O)c3ccc(Cl)cc3)ccc21` , state its recorded RP-LC retention time. 946

Same for CCOc1ccccc1NC(=O)N1CCCC1c1c(C)noc1C (centres undefined) 833

Same for `O=C(NCc1ccccc1Cl)c1c(O)c2cccnc2n(-c2ccc(F)cc2)c1=O` 1240

Same for `CC(C)N1CCN(Cc2ccc(C(=O)NCc3cccc(C(F)(F)F)c3)cc2)C(=O)C1=O` 766

Same for O=C1CCCc2cc(S(=O)(=O)N3CCCC(C(=O)N4CCc5ccccc5C4)C3)ccc2N1 (centres undefined) 792

Same for `O=C(N[C@H]1C[C@@H]2C[C@H]1CN2C(=O)NCCc1ccccc1)c1ccccc1` 734

Same for `Cc1ccc(-c2csc(NC(=O)CSc3nc4c(cc3C#N)CCC4)n2)cc1` 1210

Same for CN1c2cc(C(=O)N3CCN(c4ccc(F)cc4)CC3)ccc2C(=O)N2CCCCC21 (centres undefined) 840

Same for `O=C(CN1C(=O)CCS(=O)(=O)c2ccccc21)Nc1ccc(Br)cc1` 774

====

assay: gradient 5% acetonitrile 3 min, to 50% in 2 min, to 85% in 15 min, held 3 min, 100 µL/min
experimental-context: column: Zorbax Extend-C18 2.1 x 50 mm; eluents: water / acetonitrile, 0.1% formic acid
recorded-endpoint: RP-LC retention time

Given `CC(=O)N1CCc2ccc(NC(=O)c3cccc(Br)c3)cc21` , state its recorded RP-LC retention time. 774 s

Same for `CCCn1c(C(=O)NN2CCCC2=O)cc2c(=O)n(C)c(=O)n(C)c21` 592 s

Same for `COC(=O)c1cc2c(=O)n(Cc3ccccn3)ccc2nc1C` 638 s

Same for Cc1nc(N2CCN(Cc3ccccc3)CC2)nc2c1C(=O)CC(c1ccc(Cl)cc1)C2 (centres undefined) 825 s

Same for `COC(=O)c1ccc(Cl)cc1NC(=O)N1CCN(CCn2c(C)nc3cccnc32)CC1` 657 s

Same for `Cc1ccc(F)c(NS(=O)(=O)c2cn(CC(C)C)c3ncccc23)c1` 932 s

Same for CCc1cccc(C)c1N(C(=O)CSCc1nc2ccccc2[nH]1)C(C)COC (centres undefined) 635 s

Same for `COc1ccc(OCc2noc(CNC(=O)Nc3ccccc3F)n2)cc1` 804 s

Same for CCOC(=O)C1CCN(C(c2cccnc2)c2c(NC(=O)c3ccco3)sc(C)c2C)CC1 (centres undefined) 926 s

Same for `CCSc1nnc(-c2nn(C)c3c2CN(S(=O)(=O)CC)CC3)n1CC` 750 s

Same for `CCn1cc(C(=O)Nc2cc(OC)cc(OC)c2)c(S(=O)(=O)N2CCSCC2)n1` 992 s

Same for `O=C(Cn1cccc(-c2nc(-c3ccc(Br)cc3)no2)c1=O)NCCc1ccccc1` 1060 s

Same for `Cc1ccc(F)cc1NC(=O)c1cnc(-c2ccc(F)cc2)nc1-c1ccncc1` 1060 s

Same for `CCOC(=O)C1CCN(C(=O)Cn2c(=O)c3cccn3c3ccc(F)cc32)CC1` 802 s

Same for CCOC(=O)c1c(C)[nH]c(C(=O)N2CCCC(C(=O)NC3CCCCC3)C2)c1C (centres undefined) 838 s

Same for CC(=O)N1CCc2cc(N3CC(C(=O)Nc4ccc(F)c(C)c4)CC3=O)ccc21 (centres undefined) 740 s

Same for CN(CCNC(=O)C1CCCN(S(=O)(=O)c2ccc3c(ccn3C)c2)C1)Cc1ccccc1 (centres undefined) 704 s

Same for `CC(C)n1c(-c2cccc(C(=O)N3CCC4(CC3)OCCO4)c2)nc2cccnc21` 693 s

Same for `COc1ccc(NC(=O)c2ccc(-n3cnc(NC(=O)C4CC4)c3)cc2)c(OC)c1` 726 s

====

assay: gradient 5% acetonitrile 3 min, to 50% in 2 min, to 85% in 15 min, held 3 min, 100 µL/min
experimental-context: column: Zorbax Extend-C18 2.1 x 50 mm; eluents: water / acetonitrile, 0.1% formic acid
recorded-endpoint: RP-LC retention time (s)
Record the value in s, omitting the unit from your answer.

Given `CCOc1cccc(CNS(=O)(=O)c2cc(-c3nc(C(C)(C)C)cs3)cs2)c1` , state its recorded RP-LC retention time. 1270

Same for `COc1ccc(CCNC(=O)NCCS(=O)(=O)c2c(C)n(C)c3ccccc23)cc1` 740

Same for `O=C(O)c1cccc(Nc2c(-c3cccc(Br)c3)nc3cnccn23)c1` 748

Same for `Clc1ccccc1-c1ccc(CNc2ncn[nH]2)o1` 676

Same for `CN(C)C(=O)c1ccc2oc(CN3CCN(C(=O)NC4CCCCC4)CC3)nc2c1` 614

Same for `O=C(Cn1c(=O)c(=O)n(Cc2ccccc2)c2ncccc21)NCc1ccco1` 786

Same for `CC(C)n1c(CCNC(=O)Cc2ccsc2)nc2cccnc21` 624

Same for `COc1ccc(-c2nnc(-c3ccccc3)o2)cc1S(=O)(=O)N(C)C` 840

Same for CCCN1CCCCc2cc(C(=O)NC3CCS(=O)(=O)C3)sc21 (stereo not given) 884

Same for `CCOc1cccc(-c2noc(Cn3ccn(-c4ccccc4)c(=O)c3=O)n2)c1` 858
